Target: T1, soluble extracellular domain of human IL-5 receptor alpha subunit (sIL-5Rα) (human, UniProt Q01344)
T1 construct: human IL-5 receptor alpha subunit (IL-5Rα, CD125), extracellular domain, residues 21–333; subcloned from a cDNA of residues 1–420; Expressed from the pSecTag2A vector; migrates at ~50 kDa (glycosylated); A biotinylated form (BirA) was used only for library screening; also called sIL-5α; CD125; source: HEK293F, transiently transfected, purified (Ni-NTA); not shown: Avi, C-terminal, kept; His6, …
T1 sequence (Q01344 21-333): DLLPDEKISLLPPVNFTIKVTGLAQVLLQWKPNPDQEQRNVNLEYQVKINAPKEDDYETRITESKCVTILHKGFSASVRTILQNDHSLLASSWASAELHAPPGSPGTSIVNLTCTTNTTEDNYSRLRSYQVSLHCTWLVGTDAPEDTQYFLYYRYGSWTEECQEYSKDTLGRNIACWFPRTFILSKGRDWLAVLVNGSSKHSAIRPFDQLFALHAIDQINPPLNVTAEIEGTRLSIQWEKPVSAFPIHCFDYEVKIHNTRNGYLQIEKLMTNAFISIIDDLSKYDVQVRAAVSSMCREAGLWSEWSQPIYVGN
Assay: BLI; Octet QKe, 30°C, 1× kinetics buffer in PBS pH 7.4; Ab immobilised on anti-human IgG Fc capture (AHC) biosensors, sIL-5Rα as analyte; association 300 s, dissociation 600 s; 1:1 binding model
Conditions: both partners purified
quantity: Kd (nM)
Just the number please, in nM, no unit attached.

input: Provide Kd value for the following binder: hu2B7 humanized anti–IL-5Rα antibody (antibody, V domains shown, VH of hu2B7: CDRs of m2B7 grafted on the FRs of daclizumab, mouse ThrH93 (Kabat) kept; VL of hu2B7: CDRs of m2B7 grafted on the FRs of daclizumab, mouse AspL60 and AspL70 kept; Full-length human IgG1, kappa; source: HEK293F, transiently cotransfected, purified (Protein A)) VH: QVQLVQSGAEVKKPGSSVKVSCKASGYTFTSYWINWVRQAPGQGLEWIGHIYPSESYTNYNQKFKDKATLTVDKSTNTAYMELSSLRSEDTAVYYCTRDYYGRSYYYAMDYWGQGTTLTVSS VL: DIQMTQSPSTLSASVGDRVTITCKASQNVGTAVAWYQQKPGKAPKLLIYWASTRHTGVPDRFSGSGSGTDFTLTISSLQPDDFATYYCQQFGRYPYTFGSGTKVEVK
output: 47.8
